src = ChEMBL document CHEMBL1795316

system_name: Genome polyprotein (West Nile virus)
assay_remarks: Inhibition of West Nile virus NS2B-NS3 serine protease at 50 uM preincubated for 15 mins before substrate addition measured after 15 mins by fluorimetric analysis
parameter_measured: inhibition (%)

Answered examples (6):
molecule	unit	inhibition
COc1ccc(/C=C/C(=O)C(=O)NC(C)(C)C)cc1OC	%	31
CN(C)c1ccc(/C=C/C(=O)C(=O)NC(C)(C)C)cc1	%	33.9
COc1ccc(/C=C/C(=O)C(=O)NC(C)(C)C)cc1	%	27.3
CC(C)(C)NC(=O)C1(/C=C/c2ccccc2)CO1 (centres undefined)	%	20.3
CC(C)(C)NC(=O)C(=O)/C=C/c1ccccc1	%	20
CC(C)(C)NC(=O)C(=O)/C=C/c1ccc(N)cc1	%	39.5

(I) CC(NC(=O)C(=O)/C=C/c1ccccc1)c1ccccc1 (centres undefined)
(II) O=C(/C=C/c1ccccc1)C(=O)NC1CC1
(III) C/C(=C\c1ccccc1)C(=O)C(=O)NC(C)(C)C
(IV) CC(C)(C)NC(=O)C(=O)/C=C/c1ccc(Cl)cc1
(V) CC(=O)OCCNC(=O)C(=O)/C=C/c1ccccc1
**Query** Sort low-to-high on inhibition, please. Please reply with the labels ordered as requested. Many thanks.
**Result** III, IV, I, II, V
(III: 0%, IV: 6.3%, I: 12.2%, II: 20%, V: 29.8%)

====

Tested on: Dengue virus
assay_remarks: Inhibition of Dengue virus NS2B-NS3 serine protease expressed in Escherichia coli BL 21 (DE3) at 50 uM preincubated for 15 mins before substrate addition measured after 15 mins by fluorimetric analysis
parameter_measured: inhibition (%)

O=C(/C=C/c1ccccc1)C(=O)NCc1ccccn1 29.4
CC(C)c1ccc(/C=C/C(=O)C(=O)NC(C)(C)C)cc1 25.5
O=C(/C=C/c1ccccc1)C(=O)NC1CC1 31.2
CC(C)NC(=O)C(=O)/C=C/c1ccccc1 23.8
COc1ccccc1/C=C/C(=O)C(=O)NC(C)(C)C 23.3
O=C(/C=C/c1ccccc1)C(=O)N1CCOCC1 30.8

====

Test system: Dengue virus
assay_remarks: Inhibition of Dengue virus NS2B-NS3 serine protease expressed in Escherichia coli BL 21 (DE3) at 50 uM preincubated for 15 mins before substrate addition measured after 15 mins by fluorimetric analysis
parameter_measured: inhibition (%)

molecule	inhibition / %
COc1ccc(/C=C/C(=O)C(=O)NC(C)(C)C)cc1OC	36.1
COc1ccc(/C=C/C(=O)C(=O)NC(C)(C)C)c(OC)c1OC	27.8
CCC/C=C/C(=O)C(=O)NC(C)(C)C	4.4
O=C(/C=C/c1ccccc1)C(=O)NCCO	26.1
O=C(/C=C/c1ccccc1)C(=O)NCC1CCCO1 (centres undefined)	28.9
O=C(/C=C/c1ccccc1)C(=O)NCc1ccncc1	29.9
CC(C)(C)NC(=O)C(=O)/C=C/c1ccccc1[N+](=O)[O-]	12.9
CC(C)(C)NC(=O)C(=O)/C=C/c1ccc(F)cc1	23.9

(I) CCCCCNC(=O)C(=O)/C=C/c1ccccc1
(II) CN(C)c1ccc(/C=C/C(=O)C(=O)NC(C)(C)C)cc1
**Query** Kindly identify the item with the lower inhibition figure among these two: I and II Lab log: write the label of the selected item as the result.
**Result** II

====

system_name: Genome polyprotein (West Nile virus) (UniProt P06935)
Sequence (P06935 whole entry): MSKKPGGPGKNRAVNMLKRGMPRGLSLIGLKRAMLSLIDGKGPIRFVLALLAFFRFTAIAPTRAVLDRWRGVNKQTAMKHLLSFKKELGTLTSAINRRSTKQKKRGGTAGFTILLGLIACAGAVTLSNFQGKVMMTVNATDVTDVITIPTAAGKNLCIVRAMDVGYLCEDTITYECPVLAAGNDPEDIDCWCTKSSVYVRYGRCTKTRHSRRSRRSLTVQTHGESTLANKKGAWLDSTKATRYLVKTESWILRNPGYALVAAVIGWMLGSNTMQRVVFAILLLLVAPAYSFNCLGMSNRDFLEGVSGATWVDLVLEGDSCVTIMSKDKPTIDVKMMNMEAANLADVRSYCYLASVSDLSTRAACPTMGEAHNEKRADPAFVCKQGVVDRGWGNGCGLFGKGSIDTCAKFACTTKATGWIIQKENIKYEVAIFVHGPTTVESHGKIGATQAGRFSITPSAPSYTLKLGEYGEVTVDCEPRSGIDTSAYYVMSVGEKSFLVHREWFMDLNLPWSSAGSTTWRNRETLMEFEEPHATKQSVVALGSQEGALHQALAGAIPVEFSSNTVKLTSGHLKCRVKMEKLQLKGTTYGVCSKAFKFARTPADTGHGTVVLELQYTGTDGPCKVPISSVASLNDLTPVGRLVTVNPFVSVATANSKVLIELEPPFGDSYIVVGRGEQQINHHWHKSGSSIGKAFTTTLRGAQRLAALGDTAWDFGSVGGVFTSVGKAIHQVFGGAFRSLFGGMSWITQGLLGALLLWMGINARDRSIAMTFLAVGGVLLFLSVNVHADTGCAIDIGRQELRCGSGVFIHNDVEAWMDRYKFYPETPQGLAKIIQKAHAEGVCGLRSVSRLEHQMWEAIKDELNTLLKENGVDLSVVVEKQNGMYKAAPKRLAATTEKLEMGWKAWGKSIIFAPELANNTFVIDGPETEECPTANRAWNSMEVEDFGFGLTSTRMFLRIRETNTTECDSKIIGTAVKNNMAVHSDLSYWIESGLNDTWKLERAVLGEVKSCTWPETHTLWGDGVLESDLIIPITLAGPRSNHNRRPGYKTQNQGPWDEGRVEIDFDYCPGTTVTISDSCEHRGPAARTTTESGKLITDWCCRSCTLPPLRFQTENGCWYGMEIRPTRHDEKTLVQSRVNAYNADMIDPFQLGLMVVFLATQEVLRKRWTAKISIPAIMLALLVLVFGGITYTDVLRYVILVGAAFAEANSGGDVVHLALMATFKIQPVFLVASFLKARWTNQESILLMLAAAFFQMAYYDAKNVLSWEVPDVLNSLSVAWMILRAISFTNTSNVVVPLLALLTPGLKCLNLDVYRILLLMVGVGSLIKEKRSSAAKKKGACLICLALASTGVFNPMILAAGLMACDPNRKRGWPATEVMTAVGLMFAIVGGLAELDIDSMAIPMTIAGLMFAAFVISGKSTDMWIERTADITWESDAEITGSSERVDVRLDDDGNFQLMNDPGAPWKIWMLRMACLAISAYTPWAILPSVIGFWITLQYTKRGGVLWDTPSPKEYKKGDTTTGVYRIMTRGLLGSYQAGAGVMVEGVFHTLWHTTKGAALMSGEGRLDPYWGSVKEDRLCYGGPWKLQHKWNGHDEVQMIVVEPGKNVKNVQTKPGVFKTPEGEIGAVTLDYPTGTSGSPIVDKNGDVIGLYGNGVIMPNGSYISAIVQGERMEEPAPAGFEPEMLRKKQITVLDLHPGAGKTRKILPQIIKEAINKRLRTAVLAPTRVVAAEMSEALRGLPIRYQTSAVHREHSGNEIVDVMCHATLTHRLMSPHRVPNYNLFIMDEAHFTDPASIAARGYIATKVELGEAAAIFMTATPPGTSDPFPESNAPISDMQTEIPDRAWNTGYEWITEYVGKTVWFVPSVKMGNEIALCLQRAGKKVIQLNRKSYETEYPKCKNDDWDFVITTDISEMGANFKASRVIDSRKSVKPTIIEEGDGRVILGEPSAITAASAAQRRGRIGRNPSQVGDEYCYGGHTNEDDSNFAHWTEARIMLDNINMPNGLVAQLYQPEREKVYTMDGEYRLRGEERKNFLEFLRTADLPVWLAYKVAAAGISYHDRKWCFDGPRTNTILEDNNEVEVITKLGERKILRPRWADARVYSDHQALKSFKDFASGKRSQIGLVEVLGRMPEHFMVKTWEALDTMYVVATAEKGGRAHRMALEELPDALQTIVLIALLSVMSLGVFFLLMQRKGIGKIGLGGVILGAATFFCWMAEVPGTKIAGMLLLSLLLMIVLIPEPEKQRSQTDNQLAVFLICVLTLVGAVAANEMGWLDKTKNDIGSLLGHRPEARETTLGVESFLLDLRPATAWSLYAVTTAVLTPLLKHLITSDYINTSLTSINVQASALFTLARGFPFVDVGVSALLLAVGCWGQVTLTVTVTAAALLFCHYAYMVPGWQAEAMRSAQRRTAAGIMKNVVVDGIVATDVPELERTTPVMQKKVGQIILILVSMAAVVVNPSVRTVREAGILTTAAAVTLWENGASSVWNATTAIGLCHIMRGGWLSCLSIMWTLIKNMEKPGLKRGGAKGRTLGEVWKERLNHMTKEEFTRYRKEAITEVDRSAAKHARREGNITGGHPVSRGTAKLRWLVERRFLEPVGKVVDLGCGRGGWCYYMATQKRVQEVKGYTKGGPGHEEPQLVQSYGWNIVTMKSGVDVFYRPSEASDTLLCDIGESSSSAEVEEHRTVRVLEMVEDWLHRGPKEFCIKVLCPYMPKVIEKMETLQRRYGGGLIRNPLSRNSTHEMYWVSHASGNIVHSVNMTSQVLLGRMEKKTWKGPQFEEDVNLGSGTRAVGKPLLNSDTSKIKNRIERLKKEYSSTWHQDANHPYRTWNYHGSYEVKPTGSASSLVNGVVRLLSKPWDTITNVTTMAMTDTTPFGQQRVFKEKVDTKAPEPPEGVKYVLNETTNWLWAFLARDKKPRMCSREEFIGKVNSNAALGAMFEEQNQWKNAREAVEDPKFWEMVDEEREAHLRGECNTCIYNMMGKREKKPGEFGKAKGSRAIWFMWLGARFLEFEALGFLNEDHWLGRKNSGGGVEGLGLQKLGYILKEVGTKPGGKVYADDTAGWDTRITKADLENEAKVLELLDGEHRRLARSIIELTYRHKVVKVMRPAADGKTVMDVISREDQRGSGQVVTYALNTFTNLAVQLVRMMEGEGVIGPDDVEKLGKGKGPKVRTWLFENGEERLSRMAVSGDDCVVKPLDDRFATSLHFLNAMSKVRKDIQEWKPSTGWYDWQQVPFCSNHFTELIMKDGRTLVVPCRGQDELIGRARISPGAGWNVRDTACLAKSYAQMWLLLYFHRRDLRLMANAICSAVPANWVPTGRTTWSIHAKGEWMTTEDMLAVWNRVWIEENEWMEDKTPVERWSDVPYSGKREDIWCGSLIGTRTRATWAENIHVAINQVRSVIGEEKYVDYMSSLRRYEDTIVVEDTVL
assay_remarks: Inhibition of West Nile virus NS2B-NS3 serine protease at 50 uM preincubated for 15 mins before substrate addition measured after 15 mins by fluorimetric analysis
parameter_measured: inhibition (%)

CC(C)(C)NC(=O)C(=O)/C=C/c1ccc(O)cc1 31.4
CC(C)(C)NC(=O)C(=O)/C=C/c1c[nH]c2ccccc12 40.6
COC(=O)[C@H](CO)NC(=O)C(=O)/C=C/c1ccccc1 27.5
